- Test system: 926638-142-R-J1-PDC complex spheroid viability;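 also: spheroids exposed to drugs for one week before readout; percent viability relative to DMSO vehicle control wells set as 100%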
- Method summary: Anticancer human tumor 926638-142-R-J1-PDC patient-derived endometrial carcinoma cell line growth inhibition [POLQ]
- Recorded conditions: second compound 10 µM; first compound 0.01 µM; stronger effect = lower value
Readout name: viability, T/C (%)

[[record]]
compound = "C=CCn1c(=O)c2cnc(Nc3ccc(N4CCN(C)CC4)cc3)nc2n1-c1cccc(C(C)(C)O)n1 + COC1C(OC(N)=O)C(O)C(Oc2ccc3c(O)c(NC(=O)c4ccc(O)c(CC=C(C)C)c4)c(=O)oc3c2C)OC1(C)C"
experimental_target = "926638-142-R-J1-PDC complex spheroid viability"
measurement_unit = "%"
observed_measurement = 109

[[record]]
compound = "CC[C@@]1(O)C(=O)OCc2c1cc1n(c2=O)Cc2cc3c(CN(C)C)c(O)ccc3nc2-1 + COC1C(OC(N)=O)C(O)C(Oc2ccc3c(O)c(NC(=O)c4ccc(O)c(CC=C(C)C)c4)c(=O)oc3c2C)OC1(C)C"
experimental_target = "926638-142-R-J1-PDC complex spheroid viability"
measurement_unit = "%"
observed_measurement = 71.1

[[record]]
compound = "C=CCn1c(=O)c2cnc(Nc3ccc(N4CCN(C)CC4)cc3)nc2n1-c1cccc(C(C)(C)O)n1 + Nc1ccc(C#CCN(C(=O)Cc2ncc(C(F)(F)F)cc2C(F)(F)F)c2ccc(F)cc2)nn1"
experimental_target = "926638-142-R-J1-PDC complex spheroid viability"
measurement_unit = "%"
observed_measurement = 95.2

[[record]]
compound = "CCc1c2c(nc3ccc(O)cc13)-c1cc3c(c(=O)n1C2)COC(=O)[C@]3(O)CC + COC1C(OC(N)=O)C(O)C(Oc2ccc3c(O)c(NC(=O)c4ccc(O)c(CC=C(C)C)c4)c(=O)oc3c2C)OC1(C)C"
experimental_target = "926638-142-R-J1-PDC complex spheroid viability"
measurement_unit = "%"
observed_measurement = 57.4

[[record]]
compound = "Cn1ncnc1[C@H]1c2n[nH]c(=O)c3cc(F)cc(c23)N[C@@H]1c1ccc(F)cc1 + COC1C(OC(N)=O)C(O)C(Oc2ccc3c(O)c(NC(=O)c4ccc(O)c(CC=C(C)C)c4)c(=O)oc3c2C)OC1(C)C"
experimental_target = "926638-142-R-J1-PDC complex spheroid viability"
measurement_unit = "%"
observed_measurement = 81

